# Tested on: KB
# method: Cytotoxicity against human KB cells
# Type: functional
Active and inactive are the calls of the source. The calls are words filed in the database; no cut-off is given here.
measurement_label: ED50

Sample records with ED50:
chemical_structure=COc1cc2ccc(=O)oc2cc1O test_target=KB measurement_label=ED50 recorded_value=inactive
chemical_structure=C=C[C@]12CN(C)[C@@H]3[C@H]4CO[C@H](C[C@H]41)[C@]1(C(=O)Nc4ccccc41)[C@@H]32 test_target=KB measurement_label=ED50 recorded_value=inactive
chemical_structure=C/C=C1\CN(C)[C@H]2C[C@@]3(C(=O)N(OC)c4ccccc43)[C@H]3C[C@@H]1[C@@H]2CO3 test_target=KB measurement_label=ED50 recorded_value=inactive
chemical_structure=CCC1=N[C@H]2C[C@@]3(C(=O)N(OC)c4ccccc43)[C@@H]3OC[C@H]2[C@H]1[C@@H]3O test_target=KB measurement_label=ED50 recorded_value=inactive
chemical_structure=CCC1=N[C@H]2C[C@@]3(C(=O)N(OC)c4ccccc43)[C@H]3C[C@@H]1[C@@H]2CO3 test_target=KB measurement_label=ED50 recorded_value=inactive

Please give the measured ED50 for this compound: `C/C=C1\CN2[C@H]3C[C@H]1[C@H](CO)[C@@H]2Cc1c3[nH]c2ccccc12` inactive

Please give the measured ED50 for this compound: `CC[C@H]1N[C@H]2C[C@@]3(C(=O)N(OC)c4ccccc43)[C@@H]3OC[C@H]2[C@H]1[C@@H]3O` inactive

Please give the measured ED50 for this compound: `C=C[C@]12CN(C)[C@@H]3[C@H]4CO[C@H](C[C@H]41)[C@]1(C(=O)N(OC)c4ccccc41)[C@@H]32` inactive

* * *

# Test system: KB
# method: Cytotoxicity against human KB cells
# Type: functional
The source made the active and inactive calls. No cut-off for these calls is given here.
measurement_label: ED50

chemical_structure=CC[C@H]1N[C@H]2C[C@@]3(C(=O)N(OC)c4ccccc43)[C@H]3C[C@@H]1[C@@H]2CO3 measurement_label=ED50 recorded_value=inactive
chemical_structure=C[C@H]1[C@H](C)CC[C@]2(C(=O)O)CC[C@]3(C)C(=CC[C@@H]4[C@@]5(C)CC[C@H](O)C(C)(C)[C@@H]5CC[C@]43C)[C@H]12 measurement_label=ED50 recorded_value=inactive
chemical_structure=C=C[C@]12C(=O)N(C)[C@@H]3[C@H]4CO[C@H](C[C@H]41)[C@]1(C(=O)Nc4ccccc41)[C@@H]32 measurement_label=ED50 recorded_value=inactive
